# Test system: OVCAR-5 ovarian
# METHOD_SUMMARY: NCI-60 one-dose screen, 48 h (100 = growth as untreated, 0 = no growth, -100 = all killed)
# CONDITION_DESCRIPTION: 10 µM unless noted
About 83,000 compounds went through this panel and 20% of them were active in at least one assay; those are over-represented in the sample as a whole.
Kindly state growth for each of the entries shown.
Give the value, in units of %, as a plain number.

Q: # get_value(readout='growth', item= CC1(O)CCC2CC3OC3(C)CCC3OC3(C)C(O)CC1C2(C)C (stereo unspecified) )
A: 120

Q: Quick one: `CO[C@H]1C[C@@H]2CC[C@@H](C)[C@@](O)(O2)C(=O)C(=O)N2CCCC[C@H]2C(=O)O[C@H]([C@H](C)C[C@@H]2CC[C@@H](OP(C)(C)=O)[C@H](OC)C2)CC(=O)[C@H](C)/C=C(\C)[C@@H](O)[C@@H](OC)C(=O)[C@H](C)C[C@H](C)\C=C/C=C/C=C/1C`
A: 60.7

Q: Quick one: `CC(=O)C(C(C)=O)C(c1ccccc1)C(C(C)=O)C(C)=O`
A: 102

Q: Quick one: `Nc1nc(N)c2nc(-c3cccc(O)c3)c(-c3cccc(O)c3)nc2n1`
A: 78.1

Q: Quick one: `Nc1c(Cl)cccc1[N+](=O)[O-]`
A: 102

Q: Quick one: `Cc1c(NC(=O)OC[C@@H]2COCCN2)cn2ncnc(Nc3ccc4c(cnn4Cc4cccc(F)c4)c3)c12`
A: 7.38

Q: Quick one: `COc1cc2ncnc(Nc3cccc(Cl)c3F)c2cc1OC(=O)N1CCN(C)C[C@H]1C`
A: 46.5

Q: Quick one: C=CCCCC(=O)CCC(=O)OCC1O[C@@H](O[C@@H]2C(O)[C@@H](OC(C)=O)C(C)O[C@H]2O[C@H](CC=C)CCCCC)C(O)[C@@H](OC(=O)/C(C)=C/C)[C@@H]1OC(=O)/C=C/c1ccccc1 (stereo partly specified)
A: 53.5

Q: Quick one: Cc1cc(O)c2c(c1)C1OC(=O)CCCCCN1C1=C2C(=O)c2cccc(OC3CC(O)C(O)C(C)O3)c2C1=O (stereo unspecified)
A: 130

Q: Quick one: `CC/C=C\C[C@H]1C/C=C2/C(=O)C=C[C@@H]2C/C=C\CCCC(=O)O1`
A: 21.7

Q: Quick one: `CCOc1cc2ncc(C#N)c(Nc3ccc(F)c(Cl)c3)c2cc1NC(=O)/C=C/CN(C)C`
A: -3.14

Q: Quick one: `O=C(Cn1ccnc1)Nc1ccc(-c2nc3ccccc3s2)cc1`
A: 104

Q: Quick one: CC1(C=O)NC(=O)NC1=O (stereo unspecified)
A: 101

Q: Quick one: `Cc1cc2c(-c3nc4ccccn4c3NC3CCCCC3)c(O)c(O)cc2c(O)c1-c1c(C)cc2c(-c3nc4ccccn4c3NC3CCCCC3)c(O)c(O)cc2c1O`
A: 33.7

Q: Quick one: `CC(=O)O[C@]1(C)C[C@H](O)[C@]2(O)C=CO[C@H](O[C@@H]3O[C@H](CO)[C@@H](O)[C@H](O)[C@H]3O)[C@@H]21`
A: 103

Q: Quick one: CC1(O)CCC(Nc2cc(-c3ccc(C(F)(F)F)cc3)c(C#N)c3nc4ccccc4n23)CC1 (stereo unspecified)
A: 99
